// compounds with log10 IC50 on UniProtKB O75907, multi-source literature
ENDPOINT: log10 IC50 (log10 of the value in nM)

COMPOUND: Cc1nc(C)c(-c2ccc(-c3ccc(C4(C(=O)O)CCC4)cc3Cl)cc2)nc1C(N)=O
ENDPOINT: log10 IC50
QUANTITATIVE_READOUT: 1.43
--
COMPOUND: CC(C)(NC(=O)c1ccccn1)C(=O)Nc1nc(-c2ccccc2)c(Cc2ccccc2)s1
ENDPOINT: log10 IC50
QUANTITATIVE_READOUT: 0.54
--
COMPOUND: CCCC(=O)N(C)CC(=O)Nc1ccc(N2CCN(C(=O)Nc3c(Cl)cccc3Cl)CC2)cc1
ENDPOINT: log10 IC50
QUANTITATIVE_READOUT: 1.73
--
COMPOUND: CC(C)=CCn1cc(/C=C/C(=O)N(NC(=O)c2ccccc2)C(C)C)c2ccccc21
ENDPOINT: log10 IC50
QUANTITATIVE_READOUT: 4.07
--
COMPOUND: C[C@]1(C(=O)O)CC[C@@H](OC2CCN(c3ccc(-c4nc5ccc(C(F)(F)F)cc5[nH]4)cn3)CC2)CC1
ENDPOINT: log10 IC50
QUANTITATIVE_READOUT: 0.60
--
COMPOUND: O=C(CCCc1ccccc1)Nc1ccc(N2CCN(C(=O)Nc3ccccc3[N+](=O)[O-])CC2)cc1
ENDPOINT: log10 IC50
QUANTITATIVE_READOUT: 2.77
--
COMPOUND: CCc1ccc(NC(=O)Nc2ccc(-c3ccc4c(c3)CCC(CC(=O)O)(CC(F)(F)F)C4=O)cc2)cc1 (stereo not drawn)
ENDPOINT: log10 IC50
QUANTITATIVE_READOUT: 0.08
--
COMPOUND: Cc1nc(C)c(-c2ccc(-c3c(F)cc(C(C)C(=O)O)cc3F)cc2)nc1C(N)=O (stereo not drawn)
ENDPOINT: log10 IC50
QUANTITATIVE_READOUT: 1.18

###

pIC50: −log10 of the molar value.
// compounds with pIC50 on human DGAT1 (Homo sapiens, UniProt O75907), multi-source literature
Sequence (O75907 whole entry): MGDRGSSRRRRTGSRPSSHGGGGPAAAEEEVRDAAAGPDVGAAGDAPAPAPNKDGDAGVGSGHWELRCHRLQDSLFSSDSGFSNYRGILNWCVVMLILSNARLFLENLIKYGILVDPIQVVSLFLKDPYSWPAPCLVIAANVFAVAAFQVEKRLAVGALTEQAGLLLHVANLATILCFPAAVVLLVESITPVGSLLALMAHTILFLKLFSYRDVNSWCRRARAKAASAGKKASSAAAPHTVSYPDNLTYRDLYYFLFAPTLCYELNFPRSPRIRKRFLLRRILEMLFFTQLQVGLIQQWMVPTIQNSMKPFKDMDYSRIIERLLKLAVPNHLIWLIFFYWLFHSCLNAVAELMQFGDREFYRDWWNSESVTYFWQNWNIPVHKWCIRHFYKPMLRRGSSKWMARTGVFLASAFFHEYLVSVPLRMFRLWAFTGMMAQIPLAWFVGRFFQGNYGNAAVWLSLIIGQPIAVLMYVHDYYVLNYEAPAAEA
Categorized via pIC50: zone 1 (below 6), zone 2 (6 to below 8), zone 3 (8 or more)

COMPOUND: O=C(CCCc1ccccc1)Nc1ccc(N2CCN(C(=O)C(O)c3ccccc3Cl)CC2)cc1 (centres unmarked)
SYSTEM: human DGAT1 (Homo sapiens, UniProt O75907)
CLASS_NAME: zone 2
--
COMPOUND: CC(C)=CCn1cc(/C=C/C(=O)N(NC(=O)c2cccc(F)c2)C(C)C)c2ccccc21
SYSTEM: human DGAT1 (Homo sapiens, UniProt O75907)
CLASS_NAME: zone 1
--
COMPOUND: Cc1nc(-c2ccc(C(=O)Nc3ccc(N4CCN(C(=O)Nc5c(Cl)cccc5Cl)CC4)cc3)cc2)no1
SYSTEM: human DGAT1 (Homo sapiens, UniProt O75907)
CLASS_NAME: zone 3
--
COMPOUND: COc1ccc(NC(=O)N2CCN(c3ccc(NC(=O)CCCc4ccccc4)cc3)CC2)c(C)c1
SYSTEM: human DGAT1 (Homo sapiens, UniProt O75907)
CLASS_NAME: zone 2
--
COMPOUND: C[C@]1(C(=O)O)CC[C@@H](OC2CCN(c3ccc(-c4nc5ccccc5[nH]4)cn3)CC2)CC1
SYSTEM: human DGAT1 (Homo sapiens, UniProt O75907)
CLASS_NAME: zone 2
--
COMPOUND: O=C(NCCNC(=O)c1ccc(O[C@H]2CC[C@@H](C(=O)O)CC2)cc1F)c1cc2cc(F)ccc2s1
SYSTEM: human DGAT1 (Homo sapiens, UniProt O75907)
CLASS_NAME: zone 3
--
COMPOUND: O=C(NCCNC(=O)N1CCC(c2ccc(Cl)cc2)CC1)c1ccc(O[C@H]2CC[C@@H](C(=O)O)CC2)c(F)c1F
SYSTEM: human DGAT1 (Homo sapiens, UniProt O75907)
CLASS_NAME: zone 3
--
COMPOUND: C=CCNC(=O)N1CCC(c2ccc(NC(=O)c3ccccc3-c3ccc(C(F)(F)F)cc3)cc2)CC1
SYSTEM: human DGAT1 (Homo sapiens, UniProt O75907)
CLASS_NAME: zone 1
--
COMPOUND: Cc1ccccc1N/C(=N/C#N)N1CCN(c2ccc(NC(=O)CCCc3ccccc3)cc2)CC1
SYSTEM: human DGAT1 (Homo sapiens, UniProt O75907)
CLASS_NAME: zone 2
--
COMPOUND: CN(C(=O)CCCc1ccccc1)c1ccc(N2CCN(C(=O)Nc3c(Cl)cccc3Cl)CC2)cc1
SYSTEM: human DGAT1 (Homo sapiens, UniProt O75907)
CLASS_NAME: zone 1
--
COMPOUND: COc1ccc(CC(=O)Nc2ccc(N3CCN(C(=O)Nc4c(Cl)cccc4Cl)CC3)cc2)cc1
SYSTEM: human DGAT1 (Homo sapiens, UniProt O75907)
CLASS_NAME: zone 3
--
COMPOUND: O=C(CNCC1CC1)Nc1ccc(C2CCN(C(=O)Nc3c(Cl)cccc3Cl)CC2)cc1
SYSTEM: human DGAT1 (Homo sapiens, UniProt O75907)
CLASS_NAME: zone 2
--
COMPOUND: CC(C)(C(=O)O)C1CCc2cc(-c3ccc(NC(=O)Nc4cccc(C(F)(F)F)c4)cc3)ccc2C1=O (centres unmarked)
SYSTEM: human DGAT1 (Homo sapiens, UniProt O75907)
CLASS_NAME: zone 2
--
COMPOUND: O=C(CCCc1ccccc1)Nc1ccc(N2CCN(C(=O)Nc3c(Cl)c(Cl)cc(Cl)c3Cl)CC2)cc1
SYSTEM: human DGAT1 (Homo sapiens, UniProt O75907)
CLASS_NAME: zone 2
--
COMPOUND: O=C(CCCc1ccccc1)Nc1ccc(N2CCN(C(=O)Nc3c(Cl)cc(C(=O)O)cc3Cl)CC2)cc1
SYSTEM: human DGAT1 (Homo sapiens, UniProt O75907)
CLASS_NAME: zone 2

###

// compounds with IC50 on UniProt:O75907, multi-source literature
ENDPOINT: IC50 (nM)

COMPOUND: CC1(C)Oc2ncnc3[nH]c(=O)n(c23)C1c1ccc(Br)cc1 (centres unmarked)
ENDPOINT: IC50
RESULT_COMPARATOR: >
QUANTITATIVE_READOUT: 100
//
COMPOUND: COC(=O)c1ccccc1NC(=O)N1CCN(c2ccc(NC(=O)c3ccccc3-c3ccc(C(F)(F)F)cc3)cc2)CC1
ENDPOINT: IC50
RESULT_COMPARATOR: =
QUANTITATIVE_READOUT: 9770
//
COMPOUND: CC(N)C(=O)Nc1ccc(C2CCN(C(=O)Nc3c(Cl)cccc3Cl)CC2)cc1 (centres unmarked)
ENDPOINT: IC50
RESULT_COMPARATOR: =
QUANTITATIVE_READOUT: 7080
//
COMPOUND: O=C(O)C1(COC2CCN(c3ccc(-c4nc5ccc(F)cc5[nH]4)cn3)CC2)CCOCC1
ENDPOINT: IC50
RESULT_COMPARATOR: =
QUANTITATIVE_READOUT: 97
//
COMPOUND: Cc1nc(C)c(-c2ccc(-c3ccc(C4(C(=O)O)CC4)cc3Cl)cc2)nc1C(N)=O
ENDPOINT: IC50
RESULT_COMPARATOR: =
QUANTITATIVE_READOUT: 11

###

// molecules with pIC50 on human DGAT1 (Homo sapiens), multi-source literature
pIC50: −log10 of the molar value.
ENDPOINT: pIC50

MOLECULE: Cc1ccc2c(c1)c(/C=C/C(=O)N(NC(=O)c1cccc(F)c1)C(C)C)cn2C(=O)OC(C)(C)C
QUANTITATIVE_READOUT: 5.49
//
MOLECULE: CC1(S(=O)(=O)NC(=O)[C@H]2CC[C@H](OC3CCN(c4ccc(-c5nc6cc(F)ccc6[nH]5)cn4)CC3)CC2)CC1
QUANTITATIVE_READOUT: 7.64
//
MOLECULE: CCC1(CC(=O)O)CCc2cc(-c3cnc(NC(=O)Nc4ccccc4)cn3)ccc2C1=O (stereo not shown)
QUANTITATIVE_READOUT: 7.32
//
MOLECULE: O=C(NCc1ccc(-c2ccccn2)cc1)c1ccc(N2CCN(C(=O)Nc3c(Cl)cc(CN4CCCC4)cc3Cl)CC2)cc1
QUANTITATIVE_READOUT: 7.22

###

// compounds with pIC50 on human DGAT1 (Homo sapiens, UniProt O75907), multi-source literature
pIC50: −log10 of the molar value.

COMPOUND: CC1(C)Oc2ncnc(N)c2N=C1c1ccc([C@H]2CC[C@H](CC(O)C(F)(F)F)CC2)cc1 (some centres unmarked)
SYSTEM: human DGAT1 (Homo sapiens, UniProt O75907)
pIC50: 7.00 to 8.00
--
COMPOUND: CC1(C)Oc2ncnc(N)c2N=C1c1ccc(-c2cccnc2)cc1
SYSTEM: human DGAT1 (Homo sapiens, UniProt O75907)
pIC50: < 7.00
--
COMPOUND: Cc1nc(N)c2c(n1)OCC(c1ccc(Br)cc1)N2 (centres unmarked)
SYSTEM: human DGAT1 (Homo sapiens, UniProt O75907)
pIC50: < 7.00
--
COMPOUND: Cc1nc(N)c2c(n1)OC(C)(C)C(c1ccc([C@H]3CC[C@H](CNC(=O)N(C)C)CC3)c(Cl)c1)=N2
SYSTEM: human DGAT1 (Homo sapiens, UniProt O75907)
pIC50: < 7.00
--
COMPOUND: O=C(O)CN1CCc2cc(-c3ccc(NC(=O)Nc4cccc(C(F)(F)F)c4)cc3)ccc2C1=O
SYSTEM: human DGAT1 (Homo sapiens, UniProt O75907)
pIC50: 5.73
--
COMPOUND: O=C(Nc1ccc(C2CCN(C(=O)Nc3c(Cl)cccc3Cl)CC2)cc1)C1CC(O)CN1 (centres unmarked)
SYSTEM: human DGAT1 (Homo sapiens, UniProt O75907)
pIC50: 5.27
--
COMPOUND: Cc1nc(C)c(-c2ccc(-c3ccc(CC(=O)O)cc3C(F)(F)F)cc2)nc1C(N)=O
SYSTEM: human DGAT1 (Homo sapiens, UniProt O75907)
pIC50: 7.85
--
COMPOUND: O=C(Nc1ccc(N2CCN(C(=O)Nc3ccccc3F)CC2)nc1)c1oc(NC2CCN(Cc3ccccc3)C2)nc1C(F)(F)F (centres unmarked)
SYSTEM: human DGAT1 (Homo sapiens, UniProt O75907)
pIC50: 6.30 to 7.00
